// data source = patent US20250074892A1

- test-description: Rat PK&BBB (pharmacokinetics and brain penetration)
- Type: in vivo, SD rats
- setup-conditions: SD, whole blood, IV 3 mg/kg
attribute-measured: half-life (h)

Q: Recorded half-life for O=C(C1CCN(c2cc(-c3cc(OCCCO)ccc3F)ccn2)CC1)N1N=CCC1c1cc(F)cc(F)c1 (racemic) , please?
Result: 1.06

A = O=C(C1CCN(c2cc(-c3cc(OCCCO)ccc3F)ccn2)CC1)N1N=CC[C@H]1c1cc(F)cc(F)c1 (racemic)
B = CC(C)(O)COc1ccc(F)c(-c2ccnc(N3CCC(C(=O)N4N=CC[C@H]4c4cc(F)cc(F)c4)CC3)c2)c1 (racemic)
Q: Looking at A and B , which one comes out lower in half-life terms? Give the label under which the chosen entry appears.
Result: A
